test.system: recombinant human Polq polymerase domain (residues 1792-2590) (Homo sapiens)
protocol.description: Cy5 fluorescence assay of Polq polymerase enzymatic activity
Assay type: biochemical
test.settings: 5 nM Polq polymerase domain, 60 nM primer-template, 50 uM dNTPs, 37° C., 18 min, 2.5% DMSO, triplicate
readout.kind: IC50 (nM)

>>> df
                                test_smiles  measured_result
0  CN(C(=O)Oc1c(-c2cn(CCO)nn2)cc(C(F)(F)F)cc1C(F)(F)F)c1ccc(F)cc1              4.8

###

Each entry below carries its recorded pIC50.
test.system: recombinant human Polq polymerase domain (residues 1792-2590) (Homo sapiens, UniProt O75417)
protocol.description: Cy5 fluorescence assay of Polq polymerase enzymatic activity
Type: biochemical
test.settings: Polq IC50, 5 nM Polq polymerase domain, 60 nM primer-template, 50 uM dNTPs, 37° C., 18 min, 2.5% DMSO, triplicate
pIC50: −log10 of the molar value.
readout.kind: pIC50

compound	measured.result
[2H]C([2H])([2H])N(C(=O)Oc1c(-c2cn(CC3(O)CNC3)nn2)cc(C(F)(F)F)cc1C(F)(F)F)c1ccc(F)cc1	8.72
CN(C(=O)Oc1c(-c2cn(CC3(O)CNC3)nn2)cc(C(F)(F)F)cc1C(F)(F)F)c1ccc(F)cc1	8.64
[2H]C([2H])([2H])N(C(=O)Oc1c(-c2cn(CC(O)CNC)nn2)cc(C(F)(F)F)cc1C(F)(F)F)c1ccc(F)cc1 (stereo not drawn)	8.47
CN(C(=O)Oc1c(-c2cn(CCOCCOCCC(=O)O)nn2)cc(C(F)(F)F)cc1C(F)(F)F)c1ccc(F)cc1	8.52
CN(C(=O)Oc1c(-c2cn(CCCCC(=O)Nc3cccc4c3C(=O)N(C3CCC(=O)NC3=O)C4=O)nn2)cc(C(F)(F)F)cc1C(F)(F)F)c1ccc(F)cc1 (stereo not drawn)	8.48
[2H]C([2H])([2H])N(C(=O)Oc1c(-c2cnn(CC(N)=O)c2)cc(C(F)(F)F)cc1C(F)(F)F)c1ccc(F)cc1	8.74

###

# pIC50 annotations
test.system: recombinant human Polq polymerase domain (residues 1792-2590) (Homo sapiens, UniProt O75417)
Sequence (O75417 1792-2590): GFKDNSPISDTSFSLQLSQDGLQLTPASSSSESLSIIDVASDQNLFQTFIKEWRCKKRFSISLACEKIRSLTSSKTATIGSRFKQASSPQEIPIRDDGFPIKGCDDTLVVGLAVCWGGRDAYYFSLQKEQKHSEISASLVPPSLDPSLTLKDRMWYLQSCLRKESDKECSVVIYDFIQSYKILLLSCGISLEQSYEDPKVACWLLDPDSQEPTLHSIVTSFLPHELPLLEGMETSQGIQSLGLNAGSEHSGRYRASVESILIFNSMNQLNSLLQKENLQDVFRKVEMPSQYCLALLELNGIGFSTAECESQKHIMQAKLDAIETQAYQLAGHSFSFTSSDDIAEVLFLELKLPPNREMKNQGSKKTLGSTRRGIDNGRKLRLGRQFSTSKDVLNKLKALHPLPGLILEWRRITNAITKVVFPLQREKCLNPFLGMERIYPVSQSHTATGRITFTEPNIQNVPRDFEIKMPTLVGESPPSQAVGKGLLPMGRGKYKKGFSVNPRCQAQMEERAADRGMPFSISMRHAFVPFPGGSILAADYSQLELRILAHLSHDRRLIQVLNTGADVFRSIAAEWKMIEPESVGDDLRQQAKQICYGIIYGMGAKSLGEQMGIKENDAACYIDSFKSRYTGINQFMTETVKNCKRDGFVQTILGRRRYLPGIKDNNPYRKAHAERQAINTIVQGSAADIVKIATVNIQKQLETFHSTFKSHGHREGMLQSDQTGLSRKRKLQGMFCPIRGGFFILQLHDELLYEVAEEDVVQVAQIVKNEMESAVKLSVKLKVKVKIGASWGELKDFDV
protocol.description: Cy5 fluorescence assay of Polq polymerase enzymatic activity
Type: biochemical
test.settings: Polq IC50, 5 nM Polq polymerase domain, 60 nM primer-template, 50 uM dNTPs, 37° C., 18 min, 2.5% DMSO, triplicate
pIC50: −log10 of the molar value.

compound	pIC50
Cc1ncsc1-c1ccc(CNC(=O)[C@@H]2C[C@@H](O)CN2C(=O)[C@@H](NC(=O)CCOCCOCCn2cc(-c3cc(C(F)(F)F)cc(C(F)(F)F)c3OC(=O)N(C)c3ccc(F)cc3)nn2)C(C)(C)C)cc1	8.34
[2H]C([2H])([2H])N(C(=O)Oc1c(-c2cn(C3CN(S(=O)(=O)CCN)C3)nn2)cc(C(F)(F)F)cc1C(F)(F)F)c1ccc(F)c(Cl)c1F	8.54
[2H]C([2H])([2H])N(C(=O)Oc1c(-c2cn(CC3(O)CNC3)nn2)cc(C(F)(F)F)cc1C(F)(F)F)c1ccc(F)c(Cl)c1F	8.82
[2H]C([2H])([2H])N(C(=O)Oc1c(-c2nnn[nH]2)cc(C(F)(F)F)cc1C(F)(F)F)c1ccc(F)cc1	8.49
CN(C(=O)Oc1c(-c2cn(CCCCCC(=O)Nc3cccc4c3C(=O)N(C3CCC(=O)NC3=O)C4=O)nn2)cc(C(F)(F)F)cc1C(F)(F)F)c1ccc(F)cc1 (centres unmarked)	8.26
